Biological target: 3',5'-cyclic-AMP phosphodiesterase 4A (Homo sapiens, UniProt P27815); note: assay procedure not described here
Sequence (P27815 whole entry): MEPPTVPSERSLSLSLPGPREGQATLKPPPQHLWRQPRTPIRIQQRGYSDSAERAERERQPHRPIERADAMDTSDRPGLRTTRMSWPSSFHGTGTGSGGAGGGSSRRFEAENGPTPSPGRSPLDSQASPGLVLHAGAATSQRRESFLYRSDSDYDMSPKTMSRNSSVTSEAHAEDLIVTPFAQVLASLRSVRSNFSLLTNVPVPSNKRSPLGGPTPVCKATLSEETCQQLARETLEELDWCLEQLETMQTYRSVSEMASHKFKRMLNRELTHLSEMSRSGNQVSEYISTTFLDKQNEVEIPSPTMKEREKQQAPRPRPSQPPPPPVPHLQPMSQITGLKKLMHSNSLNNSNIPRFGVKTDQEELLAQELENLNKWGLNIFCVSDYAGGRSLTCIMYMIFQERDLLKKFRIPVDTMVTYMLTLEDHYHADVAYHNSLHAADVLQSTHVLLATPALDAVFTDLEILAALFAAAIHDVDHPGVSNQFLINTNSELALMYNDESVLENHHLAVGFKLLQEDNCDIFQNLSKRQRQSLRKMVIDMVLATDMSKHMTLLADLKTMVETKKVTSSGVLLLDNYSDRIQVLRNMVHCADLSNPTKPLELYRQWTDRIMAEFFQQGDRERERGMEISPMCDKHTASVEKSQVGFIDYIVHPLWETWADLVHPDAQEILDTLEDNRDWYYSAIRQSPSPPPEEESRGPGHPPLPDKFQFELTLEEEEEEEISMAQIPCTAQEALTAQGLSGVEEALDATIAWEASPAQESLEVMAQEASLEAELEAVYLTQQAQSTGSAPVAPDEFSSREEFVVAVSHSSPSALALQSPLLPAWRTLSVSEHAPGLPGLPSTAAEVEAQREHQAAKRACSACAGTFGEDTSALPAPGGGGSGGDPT
Type: functional
*1 amine or outer side, *2 acyl side, *3 side chain or, on linkers, in order; H or OH if unused. Where a SMILES comes first, the peptide text is derived from it. Bridges are numbered along the chain shown (N, C = ends). [ ]: non-standard residue; d: D form. The star is where a group is joined. hTyr(3S-OH,4S-OH,3'-OSO3H) = N[C@H](C(=O)O)[C@H](O)[C@@H](O)c1ccc(O)c(OS(=O)(=O)O)c1; Orn(4R-OH,5R-OH) = O=C([C@H](C[C@@H](O)[C@@H](O)N[*:3])N[*:1])[*:2]; Pro(3S-OH,4S-Me) = C[C@H]1CN[C@H](C(=O)O)[C@H]1O; X1 = CCCCCOc1ccc(-c2cc(-c3ccc(C(=O)*)cc3)no2)cc1; Gln(3R-OH) = NC(=O)C[C@@H](O)[C@H](N)C(=O)O; Hyp = O=C(O)[C@@H]1C[C@@H](O)CN1
# AC50 per record follows
assay metric: AC50

compound	experimental result
N[C@@H](Cc1c[nH]c2ccc(O)cc12)C(=O)O [OXITRIPTAN]	> 30 µM
N=C(N)NCc1cccc([123I])c1 [IOBENGUANE I 123]	> 30 µM
CO/N=C(\C(=O)N[C@@H]1C(=O)N2C(C(=O)[O-])=C(C[n+]3cccc4c3CCC4)CS[C@H]12)c1csc(N)n1 [CEFPIROME]	> 30 µM
CCOC(=O)c1ccc(OC(=O)CCCCCNC(=N)N)cc1 [GABEXATE]	> 30 µM
CC(C)(C)C(=O)NCCCC(=O)O [PIVAGABINE]	> 30 µM
CCCCCOc1ccc(-c2cc(-c3ccc(C(=O)N[C@H]4C[C@@H](O)[C@@H](O)NC(=O)[C@@H]5[C@@H](O)[C@@H](C)CN5C(=O)[C@H]([C@H](O)CC(N)=O)NC(=O)[C@H]([C@H](O)[C@@H](O)c5ccc(O)c(OS(=O)(=O)O)c5)NC(=O)[C@@H]5C[C@@H](O)CN5C(=O)[C@H]([C@@H](C)O)NC4=O)cc3)no2)cc1 [MICAFUNGIN] (X1-[Orn(4R-OH,5R-OH)]T[Hyp][hTyr(3S-OH,4S-OH,3'-OSO3H)][Gln(3R-OH)][Pro(3S-OH,4S-Me)]; lactam 1-C)	29.5 µM
